Assay: Pharmacokinetics after single i.v. injection
Conditions: Sprague-Dawley, rat, in vivo, iv, 12 mg/kg
Endpoint label: Cmax (ng/mL)
Provide only the numeric value, understood in ng/mL.

Data request: What does the data say about its Cmax? Entry: `CCc1c2c(nc3ccc(OC(=O)N4CCC(N5CCCCC5)CC4)cc13)-c1cc3c(c(=O)n1C2)COC(=O)[C@]3(O)CC`
Data returned: 23800

----------
Assay: Pharmacokinetics after single i.v. injection
Conditions: Sprague-Dawley, rat, in vivo, iv, 12 mg/kg
Endpoint label: AUC(0-inf) (ng·h/mL)
Numeric answer only, unit ng·h/mL assumed.

Data request: Would you mind telling me what AUC(0-inf) value was observed for `CCc1c2c(nc3ccc(OC(=O)N4CCC(N5CCCCC5)CC4)cc13)-c1cc3c(c(=O)n1C2)COC(=O)[C@]3(O)CC` ?
Data returned: 68900
